Source of measurements: PubChem BioAssay (NCI)

# Test system: COLO 205 colon
# protocol-summary: NCI tumour cell line growth inhibition, 48 h
Measured TGI, listed per entry.
measured-metric: TGI

INSERT INTO assay_data (compound, result_value) VALUES
  ('CC(C)/C(=N\[N+](C)(C)C)c1ccccc1', '> 100 µM'),
  ('CC(=O)OC1CC[C@@]2(C)C(CC[C@]3(C)C2CC=C2[C@@H]4C(C)[C@H](C)CCC4(C)CCC23C)[C@@]1(C)C(=O)O (stereo not given in full)', '45 µM'),
  ('CN(C)c1ccc(C(c2ccc(Cl)cc2)c2ccc(N(C)C)cc2)cc1', '> 100 µM'),
  ('C=CCCCCOC1C=CC(O)C(CO)O1 (stereo not given)', '> 100 µM'),
  ('CCOC(=O)C(O)(C(=O)OCC)c1cc(C(C)(C)C)c(O)c(C(C)(C)C)c1', '90.1 µM'),
  ('C=CCOC(=O)C1CCC(=O)N1C(=O)C(Cl)Cl (stereo not given)', '> 100 µM'),
  ('CCOC(=O)C(C)c1nc2ccc(C(F)(F)F)cc2[nH]c1=O (stereo not given)', '> 100 µM'),
  ('S=C(N1CCN(c2cccc(Cl)c2)CC1)N1CCN(c2cccc(Cl)c2)CC1', '68 µM'),
  ('COc1ccc(C(CC(=O)c2ccccc2)C(C(=O)c2ccccc2)C(c2ccc(OC)cc2)C2C(=O)NC(=S)NC2=O)cc1 (stereo not given)', '> 100 µM'),
  ('CCCN1C(=O)/C(=C\c2ccc(OC)c(OC)c2)SC1=Nc1ccccc1', '> 100 µM');
